Provenance of the data: BigSolDB 2.1

- condition: in isopropyl acetate, 313.14 K
parameter: solubility (mole fraction)
Please respond with just the number, no unit label.

Input: Any idea what solubility (mole fraction) was measured for `C[C@H]1[C@H](OC(=O)CCC(=O)O)O[C@@H]2O[C@@]3(C)CC[C@H]4[C@H](C)CC[C@@H]1[C@@]24OO3` ?
Output: 0.0229

----------
- condition: in ethanol, 298.24 K
parameter: solubility (mole fraction)
Please respond with just the number, no unit label.

Input: Any idea what solubility (mole fraction) was measured for `C[C@H]1[C@H](OC(=O)CCC(=O)O)O[C@@H]2O[C@@]3(C)CC[C@H]4[C@H](C)CC[C@@H]1[C@@]24OO3` ?
Output: 0.0208
